Multiple publications report pKi for Dihydrofolate reductase (Homo sapiens); what follows is a combined list.
Give bare numbers, as −log10 of the molar value.

[
  {
    "compound": "CCCC(Cc1coc2nc(N)nc(N)c12)c1ccccc1OC (racemic)",
    "pKi": 5.60
  },
  {
    "compound": "C#CCN(Cc1nc2cc(C(F)(F)F)ccc2nc1-c1ccccc1)c1ccc(CC(=O)OCC)cc1",
    "pKi": 5.52
  },
  {
    "compound": "O=C1OC(c2ccc(O)c(I)c2)(c2ccc(O)c(I)c2)c2c1ccc1ccccc21",
    "pKi": 5.41
  },
  {
    "compound": "O=C1OC(c2cc(Cl)c(O)c(Cl)c2)(c2cc(Cl)c(O)c(Cl)c2)c2cccc3cccc1c23",
    "pKi": 4.55
  },
  {
    "compound": "Cc1cc(O)c(C(C)C)cc1C1(c2cc(C(C)C)c(O)cc2C)OC(=O)c2ccc3ccccc3c21",
    "pKi": 4.89
  },
  {
    "compound": "CCc1ccc(NCc2cnc3nc(N)nc(N)c3n2)cc1C(=O)N1CCC(C(=O)OC)CC1",
    "pKi": 5.33
  }
]

Provide reported pKi for each item, in the same order as listed.
1. CCOC(=O)CCCOc1cc(NCc2ccc3nc(N)nc(N)c3c2)ccc1OC
2. O=C1OC(c2ccc(O)c(I)c2)(c2ccc(O)c(I)c2)c2cccc3cccc1c23
3. O=C1OC(c2ccc(O)c(F)c2)(c2ccc(O)c(F)c2)c2ccc(Cl)c3cccc1c23

Given back:
8.02
4.03
4.92

====

Multiple publications report Ki for Dihydrofolate reductase (Homo sapiens, UniProt P00374); what follows is a combined list.
Numbers only, in µM.

Example entries and their recorded answers appear below.
[
  {
    "smiles.str": "CCOC(=O)Cc1ccc(N(CC)Cc2nc3cc(C(F)(F)F)ccc3nc2-c2ccccc2)cc1",
    "measurement.label": "Ki",
    "observed.result": 3
  },
  {
    "smiles.str": "CCCN(Cc1ccc2nc(N)nc(N)c2c1)c1ccc(OC)c(OCCCCC(=O)OC)c1",
    "measurement.label": "Ki",
    "observed.result": 0.188
  },
  {
    "smiles.str": "O=C1OC(c2ccc(O)c(F)c2)(c2ccc(O)c(F)c2)c2ccc3ccccc3c21",
    "measurement.label": "Ki",
    "observed.result": 109
  },
  {
    "smiles.str": "CCOC(=O)CC[C@H](NC(=O)c1ccc(N(CC)Cc2nc3cc(C(F)(F)F)ccc3nc2-c2ccccc2)cc1)C(=O)OCC",
    "measurement.label": "Ki",
    "observed.result": 4
  },
  {
    "smiles.str": "CN(Cc1nc2cc(C(F)(F)F)ccc2nc1-c1ccccc1)c1ccc(Cl)cc1",
    "measurement.label": "Ki",
    "observed.result": 5
  }
]

Provide reported Ki for each item, in the same order as listed.
1. COc1ccc2cc([C@@H](C)C(=O)O)ccc2c1
2. CCOC(=O)CC[C@H](NC(=O)c1ccc(N(C)Cc2nc3cc(C(F)(F)F)ccc3nc2-c2ccccc2)cc1)C(=O)OCC
3. Nc1ccc(C(=O)N[C@@H](CCC(=O)O)C(=O)O)cc1

Given back:
[3400, 0.2, 180]

Provide reported Ki for each item, in the same order as listed.
1. CN(Cc1nc2cc(C(F)(F)F)ccc2nc1-c1ccccc1)c1ccc(F)cc1
2. C#CCN(Cc1nc2cc(C(F)(F)F)ccc2nc1-c1ccccc1)c1ccc(Cl)cc1
3. O=C1OC(c2ccc(O)c(Br)c2)(c2ccc(O)c(Br)c2)c2cccc3cccc1c23
4. O=C(O)Cc1ccccc1Nc1c(Cl)cccc1Cl
5. COc1ccc(NCc2ccc3nc(N)nc(N)c3c2)cc1OC
6. C#CCN(Cc1nc2cc(C(F)(F)F)ccc2nc1-c1ccccc1)c1ccc(OC)c(OC)c1
7. COc1ccc2cc([C@H](C)C(=O)O)ccc2c1

Given back:
1. 5
2. 4
3. 15
4. 160
5. 0.0118
6. 3
7. 7000

Provide reported Ki for each item, in the same order as listed.
1. O=C(O)CCC(=O)c1ccc(-c2ccccc2)cc1
2. CN(Cc1cnc2nc(N)nc(N)c2n1)c1ccc2c(c1)CN([C@@H](CCC(=O)O)C(=O)O)C2=O
3. C#CCN(Cc1nc2cc(C(F)(F)F)ccc2nc1-c1ccccc1)c1ccccc1Cl
4. C#CCN(Cc1nc2cc(C(F)(F)F)ccc2nc1-c1ccccc1)c1ccc(OC)cc1

Given back:
1. 360
2. 0.0021
3. 2
4. 3
